biological target: T1, recombinant human VEGF 165 isoform (human, UniProt P15692 27-191); experiment: competitive ELISA in solution, 10 pM hVEGF-165, free VEGF read with Quantikine kit
T1 construct: mature
T1 sequence (P15692 other isoform, or with tags, fused parts or gaps): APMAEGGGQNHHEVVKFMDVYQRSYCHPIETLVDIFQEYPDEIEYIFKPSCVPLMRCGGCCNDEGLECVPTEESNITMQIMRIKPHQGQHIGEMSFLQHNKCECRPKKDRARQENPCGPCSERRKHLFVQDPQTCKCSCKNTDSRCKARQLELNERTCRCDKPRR
result.type: pKd
Hey, just a heads up that pKd is the negative log base 10 of the concentration in molar.

### Prompt Which measured pKd value corresponds to Variant 212 (Fab variant of Clone #201) (Fab, V domains shown) VH: EVQLVESGGGLVQPGGSLRLSCAASGFDLFHYSIDWVRQAPGKGLEWVAYIYPSYGYTYYADSVKGRFTISADTSKNTAYLQMNSLRAEDTAVYYCARHAWYYGWGLDYWGQGTLVTVSS VL: DIQMTQSPSSLSASVGDRVTITCRASQAAYGRVAWYQQKPGKAPKLLIYKASELYAGVPSRFSGSRSGTDFTLTISSLQPEDFATYYCQQRGWYLFTFGQGTKVEIKR ?
### Response 8.89
